# ASSAYED SYSTEM: T1, human FLT3 (human, UniProt P36888 27-541, limits assumed)
# T1 construct: Soluble analyte hFLT3 in SPR; also called hFLT3; huFlt3
# T1 sequence: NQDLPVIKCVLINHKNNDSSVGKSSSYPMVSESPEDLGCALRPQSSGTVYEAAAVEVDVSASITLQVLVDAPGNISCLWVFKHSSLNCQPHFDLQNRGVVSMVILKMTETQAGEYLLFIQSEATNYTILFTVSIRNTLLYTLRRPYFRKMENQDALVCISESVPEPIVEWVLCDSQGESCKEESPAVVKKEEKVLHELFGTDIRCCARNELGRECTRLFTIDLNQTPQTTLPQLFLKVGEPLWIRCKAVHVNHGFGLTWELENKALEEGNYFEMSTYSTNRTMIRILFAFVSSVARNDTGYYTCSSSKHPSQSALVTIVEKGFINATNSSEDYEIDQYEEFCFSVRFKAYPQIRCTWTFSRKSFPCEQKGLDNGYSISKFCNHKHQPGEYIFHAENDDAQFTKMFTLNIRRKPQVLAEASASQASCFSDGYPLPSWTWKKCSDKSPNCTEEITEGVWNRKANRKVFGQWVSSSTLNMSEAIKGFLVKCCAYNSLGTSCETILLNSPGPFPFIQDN
# MEASUREMENT DESCRIPTION: SPR Biacore T200, 37C; scFv format
MEASURED PROPERTY: kon
Respond with the figure and its unit, in that order.

Some solved cases for reference:
INSERT INTO assay_data (binder, result) VALUES
  ('P3E10 (scFv format) (scFv) scFv: QVQLVQSGAEVKKPGSSVKVSCKASGGTFSSYAIQWVRQAPGQGLEWMGGIVGSWGLANYAQKFQGRVTITTDKSTSTAYMELSSLRSEDTAVYYCATSAFGELASWGQGTLVTVSSGGGGSGGGGSGGGGSEIVLTQSPGTLSLSPGERATLSCRASQSVPSSQLAWYQQKPGQAPRLLIYDASSRATGIPDRFSGSGSGTDFTLTISRLEPEDFAVYYCQQYGSSPLTFGQGTKVEIK', '172000 M⁻¹ s⁻¹'),
  ('P4H11 (scFv format) (scFv) scFv: EVQLLESGGGLVQPGGSLRLSCAASGFTFSSYAMNWVRQAPGKGLEWVSSISGGGRSTYYADSVKGRFTISRDNSKNTLYLQMNSLRAEDTAVYYCARDLSPSDVGWGYGFDIWGQGTLVTVSSGGGGSGGGGSGGGGSEIVLTQSPGTLSLSPGERATLSCRASQSVSNTYLAWYQQKPGQAPRLLIYDTSSRATGIPDRFSGSGSGTDFTLTISRLEPEDFAVYYCQQYGSSLTFGQGTKVEIK', '160000 M⁻¹ s⁻¹');

Field request: kon | item: P9F1 (scFv format) (scFv, not shown: a dimerising Fc or GST; small tags and cut ends) scFv: EVQLLESGGGLVQPGGSLRLSCAASGFIFSSFAMSWVRQAPGKGLEWVSDISGSGASTYYADSVKGRFTISRDNSKNTLYLQMNSLRAEDTAVYYCASASGGSGSYWPYMDPWGQGTLVTVSSGGGGSGGGGSGGGGSQSVLTQPPSASGTPGQRVTISCSGSGSNIGSNYVYWYQQLPGTAPKLLIYRNNQRPSGVPDRFSGSKSGTSASLAISGLRSEDEADYYCAAWDGSLSRPVFGTGTKLTVL
226000 M⁻¹ s⁻¹
